# measured_target: human adenosine A1 receptor (Homo sapiens)
# Sequence (P30542 1-326): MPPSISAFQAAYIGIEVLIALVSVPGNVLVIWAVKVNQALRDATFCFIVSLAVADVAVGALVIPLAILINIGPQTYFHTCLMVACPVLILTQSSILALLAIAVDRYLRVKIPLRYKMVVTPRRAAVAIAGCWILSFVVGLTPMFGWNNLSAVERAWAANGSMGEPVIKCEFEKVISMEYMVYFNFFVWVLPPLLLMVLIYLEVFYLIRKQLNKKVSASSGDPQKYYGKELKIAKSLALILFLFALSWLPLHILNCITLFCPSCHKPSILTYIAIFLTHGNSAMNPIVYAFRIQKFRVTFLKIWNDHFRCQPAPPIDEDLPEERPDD
# experimental_protocol: Adenosine A1 Receptor Functional Assay (A1GAL2)
# test_settings: CHO-K1 cells overexpressing human A1 receptor, cAMP inducible beta-galactosidase reporter, 4 nM r-PIA/1 uM Forskolin agonist challenge
measurement_type: pIC50
The read-out pIC50 is expressed as -log10 of concentration in moles per litre.

## Task Can you look up the measured pIC50 of COc1ccc(OC2CCN(c3cccc4c3-c3nc(N)nc(-c5ccccc5)c3C4=O)CC2)cc1 [Example A] for me?
## Result 5.14
